# Experimental parameters: 25 °C
Experimental readout: solubility (µM)

Worked cases, answers included:
Smiles record	Experimental readout	Measure unit	Value observed
Clc1ccc(Oc2cccc(Cl)c2Cl)cc1	solubility	µM	4.9
Clc1cc(Cl)cc(Oc2ccccc2)c1	solubility	µM	8.7

I: Clc1cccc(Oc2ccc(Cl)cc2Cl)c1
II: Clc1ccc(Cl)c(Oc2ccccc2)c1
III: Clc1ccc(Oc2ccc(Cl)cc2Cl)cc1
Exam item: hey, can you rank those compounds up there by solubility? biggest number first please List labels; respect the requested ordering.
Marked response: II, I, III
(II: 10.7 µM, I: 3.62 µM, III: 0.603 µM)

1: Clc1ccc(Oc2ccccc2Cl)cc1
2: Clc1cccc(Cl)c1Oc1ccccc1
Exam item: Between 1 and 2 , which one has the lower reported solubility value? Provide the label of your selected option as the answer.
Marked response: 1
(1: 3.02 µM, 2: 8.7 µM)
